target or system: Chromobox protein homolog 1 (Homo sapiens) (UniProt P83916)
Sequence (P83916 whole entry, looked up): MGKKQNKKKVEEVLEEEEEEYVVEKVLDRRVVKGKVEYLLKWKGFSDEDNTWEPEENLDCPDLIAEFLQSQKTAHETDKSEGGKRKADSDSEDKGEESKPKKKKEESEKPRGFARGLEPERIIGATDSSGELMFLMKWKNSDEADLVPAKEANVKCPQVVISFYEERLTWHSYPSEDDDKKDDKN
procedure details: HTS for Inhibitors of HP1-beta Chromodomain Interactions with Methylated Histone Tails; note: nearly all actives have a fitted effect of over 70% in size
condition parameters: AlphaScreen HP1-beta / biotin-H3K9me3 peptide binding; series mostly up to 114 µM
Screen size: about 390,000 compounds; about 2,200 (0.56%) were called active. Inconclusive results (about 3%) are left out. Calls come from the whole dose curve; as a rule, active = well fitted inhibition curve with a large enough effect; inconclusive = small, poorly fitted or top-dose-only effect; inactive = no such curve, though single readings can be large or run the other way. This is one part of a sample in which actives are shown more often than they occur.
// allowed return values: T for active, F for inactive

INSERT INTO results (compound, target_or_system, label_class) VALUES
  ('Cc1ccccc1CSc1nc(-c2ccccc2)nc2c1Cc1c(CO)cnc(C)c1O2', 'Chromobox protein homolog 1 (Homo sapiens) (UniProt P83916)', 'F'),
  ('Cc1cccc(Nc2cc(C)nc(-n3nc(C)cc3C)n2)c1', 'Chromobox protein homolog 1 (Homo sapiens) (UniProt P83916)', 'F'),
  ('Cc1ccccc1C(=O)N(Cc1ccc(N(C)C)cc1)CC1CCCO1 (stereo not given)', 'Chromobox protein homolog 1 (Homo sapiens) (UniProt P83916)', 'F');

Enquiry: Recorded test outcome, item "CC(=O)c1ccc(N2CCN(CC(=O)Nc3ccccc3N3CCOCC3)CC2)cc1"
Return: F

Enquiry: Same question, "O=C(CN1CCN(c2cccc(Cl)c2)CC1)Nc1ccc(S(=O)(=O)N2CCOCC2)cc1" this time
Return: F

Enquiry: Same question, "O=C(NCc1ccccc1)c1cccc(NC(=O)N2CCSc3ncccc32)c1" this time
Return: F

Enquiry: Same question, "CCOc1ccc(CNC(=O)Cn2cc3c(n2)-c2c(oc(C(=O)N4CCCC4)c2C)CC3)cc1" this time
Return: F

Enquiry: Same question, "O=C(CN1CCN(c2ccc(O)cc2)CC1)Nc1ccc(-c2ccccc2)cc1" this time
Return: T

Enquiry: Same question, "O=C(CN1CCN(c2ccc(O)cc2)CC1)Nc1cc(S(=O)(=O)N2CCOCC2)ccc1Cl" this time
Return: T

Enquiry: Same question, "Cc1cc(N=Nc2ccc3ccccc3c2)ccc1O" this time
Return: T

---

target or system: Chromobox protein homolog 1 (Homo sapiens)
procedure details: HTS for Inhibitors of HP1-beta Chromodomain Interactions with Methylated Histone Tails; note: nearly all actives have a fitted effect of over 70% in size
condition parameters: AlphaScreen HP1-beta / biotin-H3K9me3 peptide binding; series mostly up to 114 µM
Out of some 390,000 compounds screened, about 2,200 (0.56%) were called active. Another 3% or so got no clear call; they are omitted. The call rests on the fitted dose curve; in most records, active means well fitted inhibition curve with a large enough effect; inconclusive means small, poorly fitted or top-dose-only effect; inactive means no such curve, though single readings can be large or run the other way. The full list was thinned out, with actives kept by preference.
// allowed return values: label 1 for active, label 0 for inactive

INSERT INTO results (structure, label_class) VALUES
  ('Cc1ccc(Cl)cc1NC(=O)CSc1nccn1C', 'label 0'),
  ('COC(=O)c1ccc(OC)c(Cn2c(=O)n(Cc3ccccc3)c(=O)c3c2c2cc(OC)ccc2n3C)c1', 'label 0'),
  ('CC(=O)N1CC[n+]2c(-c3ccc([N+](=O)[O-])cc3)csc21', 'label 1'),
  ('O=S(=O)(c1ccc(Cl)cc1)c1nnn2c1nc(NC1CCCC1)c1sccc12', 'label 0'),
  ('O=C(C1CCC1)N1CCN(S(=O)(=O)c2ccc([N+](=O)[O-])cc2)CC1', 'label 0'),
  ('Nc1ncc(S(=O)(=O)Nc2ccc(OC(F)(F)F)cc2)cn1', 'label 0');

Enquiry: Recorded test outcome, item "CCOc1ccc(NC(=O)CSc2nnc3c(n2)[nH]c2ccc(S(=O)(=O)N4CCOCC4)cc23)cc1"
Return: label 0

Enquiry: Same question, "COc1ccc(C(=O)Nc2c(Cl)cc(Cl)cc2C(=O)N2CCC(C)CC2)cc1" this time
Return: label 0

Enquiry: Same question, "Cc1cc(C)cc(C(=O)N2CCN=C2SCc2ccc([N+](=O)[O-])cc2)c1" this time
Return: label 0

Enquiry: Same question, "Cc1ccc(CNS(=O)(=O)c2ccc(-c3cc(C(F)(F)F)on3)s2)cc1" this time
Return: label 0
